Measured melting point by item

>>> recordedmeasurement("CON(C)C(=O)C(=O)Nc1ccc(-c2noc(C(F)(F)F)n2)cc1")
"163 to 165 °C"

input: What measured melting point goes with CNC(=O)C(=O)Nc1ccc(-c2noc(C(F)(F)F)n2)cc1 ?
output: 231 to 234 °C

input: What measured melting point goes with CC1CCC(OC(=O)C(=O)NCc2ccc(-c3noc(C(F)(F)F)n3)cc2)C1 (centres unmarked) ?
output: 112 to 116 °C

* * *

attributeMeasured: melting point

Below: 4 molecules and their reported melting point.
>>> recordedmeasurement("CC(=O)C(=O)NCc1ccc(-c2noc(C(F)(F)F)n2)cc1")
"75.8 to 77.5 °C"
>>> recordedmeasurement("O=C(NCC1CC1)C(=O)Nc1ccc(-c2noc(C(F)(F)F)n2)cc1")
"209 to 212 °C"
>>> recordedmeasurement("CON1CCC(N(C)C(=O)C(=O)NCc2ccc(-c3noc(C(F)(F)F)n3)cc2)CC1")
"123 to 125 °C"
>>> recordedmeasurement("CO/N=C(\\C#N)C(=O)NCc1ccc(-c2noc(C(F)(F)F)n2)cc1")
"130 to 131 °C"

input: What measured melting point goes with CCOCCOC(=O)C(=O)NCc1ccc(-c2noc(C(F)(F)F)n2)cc1 ?
output: 112 to 114 °C

input: What measured melting point goes with O=C(NCc1ccc(-c2noc(C(F)(F)F)n2)cc1)C(=O)N1CCCCC1 ?
output: 104 to 108 °C

* * *

attributeMeasured: melting point

>>> recordedmeasurement("CNC(=O)C(=O)N(Cc1ccc(-c2noc(C(F)(F)F)n2)cc1)OC")
"87.7 to 88.8 °C"
>>> recordedmeasurement("CN(C)C(=O)C(=O)NCc1ccc(-c2noc(C(F)(F)F)n2)cc1")
"107 to 112 °C"
>>> recordedmeasurement("COCCNC(=O)C(=O)Nc1ccc(-c2noc(C(F)(F)F)n2)cc1C")
"126 to 130 °C"
>>> recordedmeasurement("COCCNC(=O)C(=O)Nc1ccc(-c2noc(C(F)(F)F)n2)cc1")
"204 to 205 °C"

--- query ---
input: What measured melting point goes with CO/N=C(\C#N)C(=O)N(Cc1ccc(-c2noc(C(F)(F)F)n2)cc1)OC ?
output: 67 to 68 °C

* * *

attributeMeasured: melting point

Below: 2 compounds and their reported melting point.
>>> recordedmeasurement("O=C(O)C(=O)NCc1ccc(-c2noc(C(F)(F)F)n2)cc1")
"162 to 173 °C"
>>> recordedmeasurement("Cc1cc(-c2noc(C(F)(F)F)n2)ccc1NC(=O)C(=O)N(C)C")
"79 to 89 °C"

--- query ---
input: What measured melting point goes with CN(Cc1ccc(-c2noc(C(F)(F)F)n2)cc1)C(=O)C(N)=O ?
output: 120 to 125 °C

* * *

Measured melting point by item

Below: 6 compounds and their reported melting point.
>>> recordedmeasurement("O=C(O)C(=O)Nc1ccc(-c2noc(C(F)(F)F)n2)cc1")
"184 to 186 °C"
>>> recordedmeasurement("CCOC(=O)C(=O)NCc1ccc(-c2noc(C(F)(F)F)n2)cc1")
"112 to 116 °C"
>>> recordedmeasurement("CO/N=C(\\C)C(=O)NCc1ccc(-c2noc(C(F)(F)F)n2)cc1")
"75.7 to 76.2 °C"
>>> recordedmeasurement("CN(C)C(=O)C(=O)Nc1ccc(-c2noc(C(F)(F)F)n2)cc1")
"127 to 130 °C"
>>> recordedmeasurement("O=C(NCc1ccc(-c2noc(C(F)(F)F)n2)cc1)C(=O)OC1CCSC1 (stereo not drawn)")
"102 to 105 °C"
>>> recordedmeasurement("C#CCNC(=O)C(=O)Nc1ccc(-c2noc(C(F)(F)F)n2)cc1")
"212 to 214 °C"

input: What measured melting point goes with O=C(Nc1ccc(-c2noc(C(F)(F)F)n2)cc1)C(=O)NC1CC1 ?
output: 238 to 241 °C

input: What measured melting point goes with CCOC(=O)C(=O)Nc1ccc(-c2noc(C(F)(F)F)n2)cc1 ?
output: 164 to 166 °C

input: What measured melting point goes with CN(C)NC(=O)C(=O)Nc1ccc(-c2noc(C(F)(F)F)n2)cc1 ?
output: 232 to 234 °C
